Overview of reported inhibition at 5 µM across a group of molecules:
targetSystem: HLA-A0206 (Homo sapiens, UniProt P04439, D140Y/D185E/D98H/E176V/E277Q/F33Y/G131W/G231S/I119V/I121R/I166T/I218V/L300P/L318F/N151K/N90K/P208A/P217A/Q86G/Q94H/R138H/R169H/T345S)
Construct: expressed in transfected cells; host or cells: HMy2.CIR
testDetails: cell-based
Type: binding
recordedConditions: HLA-A0206 HMy2.CIR cells; competitor peptide 5μM; 24 hours; flow cytometry; read-out: 5μM Inhibition (%)
Residues, ends and D or L forms follow the SMILES beside them.
propertyLabel: inhibition at 5 µM (%)

>  <molecule>
CC(C)C[C@H](NC(=O)[C@H](Cc1ccccc1)NC(=O)[C@H](C)NC(=O)[C@H](CCCCN)NC(=O)[C@H](Cc1ccc(O)cc1)NC(=O)[C@@H](NC(=O)[C@@H]1CCCN1)[C@@H](C)O)C(=O)N[C@@H](CS)C(=O)N[C@@H](CCCCN)C(=O)O [Epitope P16] (H-PTYKAFLCK-OH; N-terminus and C-terminus assumed)

>  <dataValue>
9

$$$$
>  <molecule>
CC(C)C[C@H](NC(=O)[C@H](CO)NC(=O)[C@H](CC(C)C)NC(=O)[C@@H](N)Cc1c[nH]c2ccccc12)C(=O)N[C@@H](CC(C)C)C(=O)N[C@H](C(=O)N1CCC[C@H]1C(=O)N[C@@H](Cc1ccccc1)C(=O)N[C@H](C(=O)O)C(C)C)C(C)C [Epitope P7]

>  <dataValue>
82.9

$$$$

###

targetSystem: HLA-A0201 (Homo sapiens, UniProt P04439, D140Y/D185E/D98H/E176V/E277Q/G131W/G231S/I119V/I121R/I166T/I218V/L300P/L318F/N151K/N90K/P208A/P217A/Q86G/Q94H/R138H/R169H/T345S)
Construct: expressed in transfected cells; host or cells: HMy2.CIR
testDetails: cell-based
Assay type: binding
recordedConditions: HLA-A0201 HMy2.CIR cells; competitor peptide 15μM; 24 hours; flow cytometry; read-out: 15μM Inhibition (%)
Residues, ends and D or L forms follow the SMILES beside them.
# inhibition at 15 µM annotations

>  <molecule>
CC(C)C[C@H](NC(=O)[C@H](CC(=O)O)NC(=O)[C@@H](NC(=O)[C@@H](NC(=O)[C@@H](N)CO)[C@@H](C)O)[C@@H](C)O)C(=O)N[C@@H](CCC(=O)O)C(=O)N[C@@H](C)C(=O)N[C@@H](Cc1ccc(O)cc1)C(=O)N[C@@H](Cc1ccccc1)C(=O)N[C@@H](CCCCN)C(=O)O [Epitope P18]

>  <inhibition at 15 µM / %>
10

$$$$
>  <molecule>
CC(C)C[C@H](NC(=O)[C@H](CCC(=O)O)NC(=O)[C@H](CCC(=O)O)NC(=O)[C@H](Cc1c[nH]c2ccccc12)NC(=O)[C@H](CC(=O)O)NC(=O)[C@H](CCCCN)NC(=O)[C@H](Cc1ccccc1)NC(=O)[C@H](CC(C)C)NC(=O)[C@@H](N)CS)C(=O)O [Epitope P12] (H-CLFKDWEEL-OH; N-terminus and C-terminus assumed)

>  <inhibition at 15 µM / %>
80.4

$$$$
>  <molecule>
CC[C@H](C)[C@H](NC(=O)[C@H](CC(N)=O)NC(=O)[C@H](C)NC(=O)CNC(=O)[C@H](CO)NC(=O)[C@H](CCCNC(=N)N)NC(=O)[C@H](CO)NC(=O)[C@@H](N)CCCNC(=N)N)C(=O)N[C@@H](CC(C)C)C(=O)O [Epitope P90] (H-RSRSGANIL-OH; N-terminus and C-terminus assumed)

>  <inhibition at 15 µM / %>
28.7

$$$$

###

targetSystem: HLA-A0203 (Homo sapiens, UniProt P04439, A173T/D140Y/D185E/D98H/E277Q/G131W/G231S/I119V/I121R/I166T/I218V/L180W/L300P/L318F/N151K/N90K/P208A/P217A/Q86G/Q94H/R138H/R169H/T345S)
Construct: expressed in transfected cells; host or cells: HMy2.CIR
testDetails: cell-based
Format: binding
recordedConditions: HLA-A0203 HMy2.CIR cells; competitor peptide 5μM; 24 hours; flow cytometry
Residues, ends and D or L forms follow the SMILES beside them.
propertyLabel: inhibition at 5 µM (%)

>  <compound>
CC[C@H](C)[C@H](NC(=O)[C@H](CC(C)C)NC(=O)[C@@H](N)CCCCN)C(=O)NCC(=O)N[C@H](C(=O)N[C@@H](Cc1c[nH]cn1)C(=O)N[C@@H](CC(N)=O)C(=O)N[C@@H](CO)C(=O)N[C@H](C(=O)O)C(C)C)[C@@H](C)O [Epitope P33] (H-KLIGTHNSV-OH; N-terminus and C-terminus assumed)

>  <dataValue>
20.6

$$$$
>  <compound>
CC(C)C[C@H](NC(=O)[C@H](Cc1ccc(O)cc1)NC(=O)[C@H](CCC(=O)O)NC(=O)[C@H](CC(C)C)NC(=O)[C@@H](NC(=O)[C@@H](NC(=O)[C@@H](N)CCC(=O)O)[C@@H](C)O)C(C)C)C(=O)N[C@H](C(=O)N[C@@H](CO)C(=O)N[C@H](C(=O)O)C(C)C)C(C)C [Epitope P118] (H-ETVLEYLVSV-OH; N-terminus and C-terminus assumed)

>  <dataValue>
11.9

$$$$
>  <compound>
CC(C)C[C@H](NC(=O)[C@@H](N)Cc1ccccc1)C(=O)N1CCC[C@H]1C(=O)N[C@@H](CO)C(=O)N[C@@H](CC(=O)O)C(=O)N[C@@H](Cc1ccccc1)C(=O)N[C@@H](Cc1ccccc1)C(=O)N1CCC[C@H]1C(=O)N[C@@H](CO)C(=O)O [Epitope P67] (H-FLPSDFFPS-OH; N-terminus and C-terminus assumed)

>  <dataValue>
86.3

$$$$
>  <compound>
CC[C@H](C)[C@H](NC(=O)[C@H](CC(C)C)NC(=O)[C@@H](N)CCCCN)C(=O)NCC(=O)N[C@H](C(=O)N[C@@H](CC(=O)O)C(=O)N[C@@H](CC(N)=O)C(=O)N[C@@H](CO)C(=O)N[C@H](C(=O)O)C(C)C)[C@@H](C)O [Epitope P34] (H-KLIGTDNSV-OH; N-terminus and C-terminus assumed)

>  <dataValue>
41.5

$$$$
>  <compound>
CC(C)C[C@H](NC(=O)[C@H](CO)NC(=O)[C@H](CC(C)C)NC(=O)[C@@H](N)Cc1c[nH]cn1)C(=O)N[C@@H](CCCNC(=N)N)C(=O)NCC(=O)N[C@@H](CC(C)C)C(=O)N1CCC[C@H]1C(=O)N[C@H](C(=O)O)C(C)C [Epitope P100] (H-HLSLRGLPV-OH; N-terminus and C-terminus assumed)

>  <dataValue>
88.6

$$$$

###

targetSystem: HLA-A0207 (Homo sapiens, UniProt P04439, D140Y/D185E/D98H/E176V/E277Q/G131W/G231S/I119V/I121R/I166T/I218V/L300P/L318F/N151K/N90K/P208A/P217A/Q86G/Q94H/R138H/R169H/T345S/Y123C)
Construct: expressed in transfected cells; host or cells: HMy2.CIR
testDetails: cell-based
Assay type: binding
recordedConditions: HLA-A0207 HMy2.CIR cells; competitor peptide 15μM; 24 hours; flow cytometry; read-out: 15μM Inhibition (%)
Residues, ends and D or L forms follow the SMILES beside them.

>  <compound>
CC[C@H](C)[C@H](NC(=O)[C@H](Cc1c[nH]cn1)NC(=O)[C@H](Cc1ccccc1)NC(=O)[C@@H](N)Cc1c[nH]c2ccccc12)C(=O)N[C@@H](CO)C(=O)N[C@@H](CS)C(=O)N[C@@H](CC(C)C)C(=O)N[C@H](C(=O)N[C@@H](Cc1ccccc1)C(=O)O)[C@@H](C)O [Epitope P52]

>  <resultUnits>
%

>  <inhibition at 15 µM>
38

$$$$
>  <compound>
CC(C)C[C@H](NC(=O)[C@H](C)NC(=O)[C@H](CO)NC(=O)[C@H](C)NC(=O)[C@@H](NC(=O)[C@H](CC(=O)O)NC(=O)[C@H](CC(C)C)NC(=O)[C@@H](N)CC(C)C)[C@@H](C)O)C(=O)N[C@@H](Cc1ccc(O)cc1)C(=O)O [Epitope P111]

>  <resultUnits>
%

>  <inhibition at 15 µM>
39

$$$$
>  <compound>
CC(C)C[C@H](NC(=O)[C@H](Cc1ccc(O)cc1)NC(=O)[C@H](CCC(=O)O)NC(=O)[C@H](CC(C)C)NC(=O)[C@@H](NC(=O)[C@@H](NC(=O)[C@@H](N)CCC(=O)O)[C@@H](C)O)C(C)C)C(=O)N[C@H](C(=O)N[C@@H](CO)C(=O)N[C@H](C(=O)O)C(C)C)C(C)C [Epitope P118] (H-ETVLEYLVSV-OH; N-terminus and C-terminus assumed)

>  <resultUnits>
%

>  <inhibition at 15 µM>
39

$$$$
